Please respond with reported IC50 at 72 h for every item in the list.
Method: MTT cytotoxicity dose-response assay, MCF-10A (non-cancerous)
Format: cell-based, human
Condition notes: human, MCF-10A cells (normal-like breast epithelial cell line), 72 h treatment, a/b/c = one, two, three or more dose-response curves
Numbers only, in µM.

COC(=O)C(N)CSCC1C(=O)OC2C1CCC1(C)C(O)CC=C(C)C21 (stereo not shown) ... 41
C=C1CC[C@@H](O)[C@]2(C)CC[C@H]3C(=C)C(=O)O[C@@H]3[C@@H]12 ... 17
C=C1C(=O)O[C@@H]2/C=C(\C)CC/C=C(\C)CC[C@@H]12 [Compound 1, costunolide] ... 20
C=C1C(=O)O[C@@H]2[C@H]3C(C)=CC[C@@H](O)[C@]3(C)CC[C@@H]12 ... 17
C=C1C(=O)OC2C1CCC1(C)C(=O)C=CC(C)(O)C21 (stereo not shown) [Compound 11, 11,13-didehydrovulgarin] ... 24
C=C1C(=O)O[C@@H]2[C@H]3C(C)=CC(=O)C3=C(C)CC[C@@H]12 [Compound 14, dehydroleucodin] ... 20
C=C1C(=O)O[C@@H]2[C@@H]3[C@@](C)(CC[C@@H]12)[C@@H](OC(C)=O)CC[C@]3(C)O (relative stereo) ... 38
C=C1CC[C@H](OC(C)=O)[C@]2(C)CC[C@H]3C(=C)C(=O)O[C@@H]3[C@@H]12 (relative stereo) ... 24

I need IC50 at 72 h for every entry listed below, if you could help.
1. C=C(C(=O)OC)C1CCC2(C)C(O)CCC(=C)C2C1O (stereo not shown)
2. C=C1C(=O)OC2C1CCC1(C)C(O)CCC(=C)C21 (stereo not drawn) [Compound 7, 1-epi-reynosin]

Result ::
29
22
